Let's look at some compounds and their measured chromatographic logP.
# Protocol description: logP determination by HPLC on reversed-phase column (EEC-Directive 79/831 Annex V.A8)
# Type: physicochemical
# Run conditions: reversed-phase HPLC column (C 18), reversed-phase C 18, 43° C., acidic range (0.1% aqueous phosphoric acid/acetonitrile gradient)

{"Compound": "CC/C(=N\\C#N)N(C)[C@H](C)c1ccc(Cl)cc1F [Example 11]", "chromatographic logP": 2.55}
{"Compound": "CC/C(=N\\C#N)N(C)[C@H](C)c1cc(F)c(Cl)cc1F [Example 13]", "chromatographic logP": 2.59}
{"Compound": "C/C(=N\\C#N)N(C)C(C)c1cccc(Cl)c1Cl (centres unmarked) [Example 28]", "chromatographic logP": 2.37}
{"Compound": "CC/C(=N\\C#N)N(C)C(C)c1cc(F)c(Br)cc1F (centres unmarked) [Example 30]", "chromatographic logP": 2.66}
{"Compound": "CC/C(=N\\C#N)N(C)C(C)c1cc(F)c(F)cc1F (centres unmarked) [Example 16]", "chromatographic logP": 2.31}
{"Compound": "C/C(=N\\C#N)N(C)C(C)c1cc(Cl)ccc1Cl (centres unmarked) [Example 24]", "chromatographic logP": 2.46}
{"Compound": "CC/C(=N\\C#N)NC(C)c1ccc(Cl)cc1Cl (centres unmarked) [Example 1]", "chromatographic logP": 2.56}
{"Compound": "CC/C(=N\\C#N)N(C)C(C)c1ccc(Cl)c(F)c1 (centres unmarked) [Example 8]", "chromatographic logP": 2.61}
{"Compound": "C/C(=N\\C#N)N(C)C(C)c1ccc(F)c(F)c1 (centres unmarked) [Example 26]", "chromatographic logP": 2.09}
{"Compound": "CC/C(=N\\C#N)N(C)C(C)c1c(F)cccc1Cl (centres unmarked) [Example 22]", "chromatographic logP": 2.19}
{"Compound": "CC/C(=N\\C#N)N(C)C(C)c1cccc(Cl)c1Cl (centres unmarked) [Example 29]", "chromatographic logP": 2.59}
{"Compound": "C/C(=N\\C#N)N(C)C(C)c1ccc(Cl)cc1Cl (centres unmarked) [Example 17]", "chromatographic logP": 2.58}
{"Compound": "CC/C(=N\\C#N)N(C)[C@@H](C)c1cc(F)c(Cl)cc1F [Example 12]", "chromatographic logP": 2.59}
{"Compound": "C/C(=N\\C#N)N(C)C(C)c1cc(Cl)c(Cl)cc1Cl (centres unmarked) [Example 19]", "chromatographic logP": 2.9}
{"Compound": "CC/C(=N\\C#N)N(C)C(C)c1ccc(Cl)c(Br)c1 (centres unmarked) [Example 21]", "chromatographic logP": 2.94}
{"Compound": "CC/C(=N\\C#N)N(C)C(C)c1ccc(F)c(F)c1 (centres unmarked) [Example 27]", "chromatographic logP": 2.32}
{"Compound": "CC/C(=N\\C#N)N(C)C(C)c1cc(Cl)c(Cl)cc1Cl (centres unmarked) [Example 20]", "chromatographic logP": 3.18}
{"Compound": "CC/C(=N\\C#N)N(C)C(C)c1ccc(Br)c(Cl)c1 (centres unmarked) [Example 25]", "chromatographic logP": 2.94}
{"Compound": "C/C(=N\\C#N)N(C)C(C)c1ccc(Cl)c(Cl)c1 (centres unmarked) [Example 14]", "chromatographic logP": 2.68}
{"Compound": "CC/C(=N\\C#N)N(C)C(C)c1ccc(Cl)cc1Cl (centres unmarked) [Example 2]", "chromatographic logP": 2.8}
{"Compound": "CC/C(=N\\C#N)N(C)C(C)c1ccc(Cl)c(Cl)c1 (centres unmarked) [Example 15]", "chromatographic logP": 2.9}
{"Compound": "C/C(=N\\C#N)N(C)C(C)c1ccc(Cl)c(F)c1 (centres unmarked) [Example 7]", "chromatographic logP": 2.4}
{"Compound": "CC/C(=N\\C#N)N(C)[C@@H](C)c1ccc(Cl)cc1F [Example 10]", "chromatographic logP": 2.55}

The values you see were collected from patent US7365098B2.
